assay: Metabolic stability in human liver microsomes assessed as parent compound remaining measured after 30 mins in presence of NADPH; type: ADME, microsome; settings: read-out: Stability
# remaining at 0.5 h listing for each entry below
Give the number; % is assumed, so skip it.

Answered cases to consult:
CCCn1c(Oc2ccc(F)c(F)c2)nc2nc(C3CCCC3)[nH]c2c1=O	82
CCCn1c(-c2cccc(OC)c2)nc2nc(C3CCCC3)[nH]c2c1=O	97
CCCn1c(OC2CCC(O)C2)nc2nc(C3CCCC3)[nH]c2c1=O (stereo unspecified)	60
COc1ccc(CCN(C)CCCC(C#N)(c2ccc(OC)c(OC)c2)C(C)C)cc1OC (stereo unspecified)	78
CCCn1c(Oc2cccnc2C)nc2nc(C3CCCC3)[nH]c2c1=O	79

Could you now consider this next compound?
# input Return remaining at 0.5 h for the following compound: C[C@]12CC[C@H]3[C@@H](CCC4=CC(=O)CC[C@@]43C)[C@@H]1CC[C@@H]2O [TESTOSTERONE]
# output 84

Measured values drawn from ChEMBL document CHEMBL3992564 for this set.
